Test system: CRL-7250
procedure_text: qHTS assay to identify novel small-molecules to repurpose for Merkel cell carcinoma treatment (AID 1296009); further: nearly all actives have a fitted effect of over 60% in size
particulars: MCC and control cell lines, CellTiter-Glo viability, 72 h; series mostly up to 92 µM
Inconclusive results are not listed. Activity calls are given as the source filed them. The call rests on the fitted dose curve; in most records, active means well fitted inhibition curve with a large enough effect; inconclusive means small, poorly fitted or top-dose-only effect; inactive means flat fitted curve, though single readings scatter.
attribute_measured: outcome

# example entries with known answers
[
  {
    "molecule": "CC1OC(OC2C(CO)OC(OCC3OC(OC(=O)C45CCC(C)(C)CC4C4=CCC6C7(C)CCC(OC8OC(C(=O)O)C(O)C(OC9OC(CO)C(O)C(O)C9O)C8O)C(C)(C)C7CCC6(C)C4(C)CC5)C(O)C(O)C3O)C(O)C2O)C(O)C(O)C1O (configuration not stated)",
    "result": "inactive [at 9.27 µM]"
  },
  {
    "molecule": "CC1(C)CC[C@]2(C(=O)O)CC[C@]3(C)C(=CCC4[C@@]5(C)C[C@@H](O)[C@H](O)[C@](C)(CO)C5CC[C@]43C)[C@@H]2[C@@H]1O (some centres not stated)",
    "result": "inactive"
  },
  {
    "molecule": "CC1(C)C2CCC1(C)C(OC(=O)C(O)(CC(=O)O)CC(=O)O)C2 (configuration not stated)",
    "result": "inactive"
  },
  {
    "molecule": "COc1cc2c(c(O)c1OC/C=C(\\C)CC/C=C(/C)CCC=C(C)C)CN(C(CCC(=O)O)C(=O)O)C2=O (configuration not stated)",
    "result": "inactive"
  },
  {
    "molecule": "CCOC(=O)O[C@]1(C(=O)OCCl)CC[C@@H]2[C@H]3CCC4=CC(=O)C=C[C@]4(C)[C@@H]3[C@@H](O)C[C@@]21C",
    "result": "inactive"
  },
  {
    "molecule": "c1cc(-c2cnn3cc(-c4ccc(N5CCNCC5)cc4)cnc23)c2cccnc2c1",
    "result": "inactive"
  },
  {
    "molecule": "C[C@@H]1O[C@@H](O[C@H]2[C@H](O)[C@@H](O)[C@H](OC(=O)[C@]34CCC(C)(C)C[C@H]3C3=CCC5[C@@]6(C)CC[C@H](O[C@@H]7O[C@H](C(=O)O)[C@@H](O)[C@H](O)[C@H]7O)C(C)(C)C6CC[C@@]5(C)[C@]3(C)CC4)O[C@@H]2CO)[C@H](O)[C@H](O)[C@H]1O (some centres not stated)",
    "result": "inactive [at 9.27 µM]"
  },
  {
    "molecule": "CCCCCCCCCC(=O)N[C@@H](Cc1c[nH]c2ccccc12)C(=O)N[C@H](CC(N)=O)C(=O)N[C@@H](CC(=O)O)C(=O)N[C@@H]1C(=O)NCC(=O)N[C@@H](CCCN)C(=O)N[C@@H](CC(=O)O)C(=O)N[C@H](C)C(=O)N[C@@H](CC(=O)O)C(=O)NCC(=O)N[C@H](CO)C(=O)N[C@@H]([C@@H](C)CC(=O)O)C(=O)N[C@@H](CC(=O)c2ccccc2N)C(=O)O[C@@H]1C",
    "result": "inactive"
  },
  {
    "molecule": "CC/C=C\\[C@H](O)[C@H](O)C1=C(C)C(=O)[C@]2(O1)C(=O)N[C@@](O)(C(=O)c1ccccc1)[C@@H]2O",
    "result": "inactive"
  },
  {
    "molecule": "COc1c(O)cc2c(c1O)[C@@H]1O[C@H](CO)[C@@H](O)[C@H](O)[C@H]1OC2=O",
    "result": "inactive"
  }
]

In: Find outcome (CRL-7250) for the entry `O=S(=O)(Nc1cc(Cl)c(Oc2cnc3ccccc3c2)c(Cl)c1)c1ccc(Cl)cc1Cl`
Out: inactive

In: Find outcome (CRL-7250) for the entry `CC(=O)c1cc2c(cc1O)OC(C)(C)C=C2`
Out: inactive
